Hey, just so you know, these numbers are from patent US5298652A.

# TARGET_OR_TEST_SYSTEM: HSF-PLA2 (extracellular PLA2 obtained from human synovial fluid) (Homo sapiens)
# Construct: extracellular enzyme obtained from human synovial fluid; from tissue; host or cells: human synovial fluid (pooled)
# ASSAY_INFO: Assay for inhibition of HSF-PLA2 in vitro
# Type: biochemical
# MEASUREMENT_CONTEXT: 1 μM test compound; read-out: % Inhib of HSF-PLA2
READOUT_TYPE: inhibition at 1 µM (%)
The figure you give is taken to be in %; do not add the unit.

Sample answers from the record:
[
  {
    "MOLECULE": "CCCCCCCCCCCCCCCCCCOc1cc(OCC(=O)O)cc(C(=O)N(CC(=O)O)CC(=O)O)c1 [Example 33]",
    "TARGET_OR_TEST_SYSTEM": "HSF-PLA2 (extracellular PLA2 obtained from human synovial fluid) (Homo sapiens)",
    "READOUT_TYPE": "inhibition at 1 µM",
    "ENDPOINT_RESULT": 29
  },
  {
    "MOLECULE": "CCCCCCCCCCCCCCOc1cc(OCCCCCCCCCCCCCC)cc(C(=O)N(CC(=O)O)CC(=O)O)c1 [Example 13]",
    "TARGET_OR_TEST_SYSTEM": "HSF-PLA2 (extracellular PLA2 obtained from human synovial fluid) (Homo sapiens)",
    "READOUT_TYPE": "inhibition at 1 µM",
    "ENDPOINT_RESULT": 27
  },
  {
    "MOLECULE": "CCCCCCCCCCCCCCCCCCOc1ccc(C(=O)C(=O)N(CC(=O)O)CC(=O)O)cc1 [Example 65]",
    "TARGET_OR_TEST_SYSTEM": "HSF-PLA2 (extracellular PLA2 obtained from human synovial fluid) (Homo sapiens)",
    "READOUT_TYPE": "inhibition at 1 µM",
    "ENDPOINT_RESULT": 74
  }
]

Below: the item to evaluate.
Data request: Quick check: inhibition at 1 µM of CCCCCCCCCCCCCCCCCCOc1cc(OCCCOc2ccc(OC)cc2)cc(C(=O)N(CC(=O)O)CC(=O)O)c1 [Example 20] ?
Data returned: 18

---

Parameter inhibition at 10 µM: see the listing below.
# TARGET_OR_TEST_SYSTEM: HSF-PLA2 (extracellular PLA2 obtained from human synovial fluid) (Homo sapiens, UniProt P14555)
# Construct: extracellular enzyme obtained from human synovial fluid; from tissue; host or cells: human synovial fluid (pooled)
# Sequence (P14555 21-144): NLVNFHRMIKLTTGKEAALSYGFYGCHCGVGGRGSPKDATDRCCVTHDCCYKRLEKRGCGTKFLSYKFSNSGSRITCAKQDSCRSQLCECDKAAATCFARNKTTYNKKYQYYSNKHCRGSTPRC
# ASSAY_INFO: Assay for inhibition of HSF-PLA2 in vitro
# Type: biochemical
# MEASUREMENT_CONTEXT: 10 μM test compound; read-out: % Inhib of HSF-PLA2
Put down the number, then write its unit next to it.

[
  {
    "SMILES_STR": "O=C(O)CN(CC(=O)O)C(=O)c1cc(OCCCCCCCCCCCCOc2ccccc2)ccc1OCc1ccccc1",
    "inhibition at 10 µM": "61%"
  },
  {
    "SMILES_STR": "CCCCCCCCCCOc1ccc(OCc2ccccc2)c(C(=O)N(CC(=O)O)CC(=O)O)c1",
    "inhibition at 10 µM": "70%"
  },
  {
    "SMILES_STR": "O=C(O)CN(CC(=O)O)C(=O)c1cc(OCCCCCCOc2ccc(-c3ccccc3)cc2)ccc1OCc1ccccc1",
    "inhibition at 10 µM": "38%"
  }
]

Data request: Fill blank: measured inhibition at 10 µM of the molecule CCCCCCCCCCCCCCCCCCOc1ccc(OCCCc2ccccc2)c(C(=O)N(CC(=O)O)CC(=O)O)c1 is ____.
Data returned: 71%
